nuclei count values, listed per item
test: reduction of polyQ htt aggregates in cells – imaging, exon1htt(103Q)mCFP cells, high-content imaging, primary screen (AID 483); details: exon1htt(103Q)mCFP cell line, aggregate imaging, at 2 µM; measured here: cell count, toxicity;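 further: compound exposure lasted 3 days before fixation; percent of the per-plate median nuclei count of sample wells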

{"compound": "CCC(C)(C(=O)NC1CCCC1)N(Cc1cccs1)C(=O)Cc1cccs1 (stereo unspecified)", "nuclei count [%]": 127}
{"compound": "O=C(O)c1cccc(CN2C(=O)SC(Nc3ccccc3)C2=O)c1 (stereo unspecified)", "nuclei count [%]": 108}
{"compound": "CCOC(=O)c1ccc(NC2OC(=O)c3ccccc32)cc1 (stereo unspecified)", "nuclei count [%]": 106}
{"compound": "CCCn1nnc(NCc2ccc(OCc3cccs3)c(OC)c2)n1", "nuclei count [%]": 90}
{"compound": "CCOC(=O)c1[nH]c(C)c(C(=O)N2CCN(c3ccc(F)cc3)CC2)c1C", "nuclei count [%]": 118}
{"compound": "Cc1cc(C)n(C(=O)C23CC4CC(CC(C4)C2)C3)n1", "nuclei count [%]": 102}
{"compound": "Cc1nc(N2CCN(c3ncccn3)CC2)c2oc3ccccc3c2n1", "nuclei count [%]": 106}
{"compound": "Cc1nccn1CCCN1C(=O)OC2(CCCCC2)C1(C)O (stereo unspecified)", "nuclei count [%]": 113}
{"compound": "O=C(Nc1nc(-c2ccc(S(=O)(=O)N3CCCCCC3)cc2)cs1)c1cccs1", "nuclei count [%]": 115}
{"compound": "CCOCCCNC(=O)c1cc2sc(Cl)cc2n1CC", "nuclei count [%]": 89.7}
{"compound": "CCOC(=O)N1CCN(Cc2nc3c(c(=O)n(C)c(=O)n3C)n2Cc2ccc(F)cc2)CC1", "nuclei count [%]": 91.7}
{"compound": "Cc1nc2c(=O)oc3ccccc3c2n1-c1ccccc1", "nuclei count [%]": 90.3}
{"compound": "CCn1c(CNc2ccc(OC)cc2)nnc1SCC(=O)c1ccc(OC)cc1", "nuclei count [%]": 100}
{"compound": "COC(=O)Cn1c(CN2CCOCC2)nc2c1c(=O)n(C)c(=O)n2C", "nuclei count [%]": 95.4}
{"compound": "CCNc1ccc(S(=O)(=O)C(F)(F)F)cc1NC(=O)C12CCC(CC1)C2", "nuclei count [%]": 108}
{"compound": "O=C(N1CCN(Cc2ccccc2)CC1)C12CC3CC(CC(C3)C1)C2", "nuclei count [%]": 88.3}
{"compound": "O=S(=O)(c1ccc2c(c1)OCCO2)N(Cc1ccc(F)cc1)Cc1nnc(-c2cccs2)o1", "nuclei count [%]": 106}
{"compound": "COC(=O)CCC(NC(=O)c1cc(-c2ccc3c(c2)OCCO3)oc1C)C(=O)OC (stereo unspecified)", "nuclei count [%]": 104}
{"compound": "Cc1cccc(-n2ncc3c(NCc4ccccn4)ncnc32)c1", "nuclei count [%]": 101}
{"compound": "O=C(CN(CC1CCCO1)S(=O)(=O)c1ccc(S(=O)(=O)NC2CC2)cc1)Nc1ccccc1 (stereo unspecified)", "nuclei count [%]": 83.4}
{"compound": "O=S(=O)(NCC1CCCO1)c1cccc(C(F)(F)F)c1 (stereo unspecified)", "nuclei count [%]": 100}
{"compound": "COc1cccc(C(=O)Nc2ccc(NC(=O)C(C)(C)C)cn2)c1", "nuclei count [%]": 120}
{"compound": "CN(C)C(=O)CSc1nnc([C@H](Cc2c[nH]c3ccccc23)NC(=O)OC(C)(C)C)o1", "nuclei count [%]": 108}
{"compound": "N#CC1=C(N)OC2=C(CCC/C2=C/c2ccoc2)C1c1ccoc1 (stereo unspecified)", "nuclei count [%]": 113}
{"compound": "CCCCN(C)Cc1c(O)ccc2c(-c3ccccc3)cc(=O)oc12", "nuclei count [%]": 103}
{"compound": "COc1cc(C2C(C#N)=C(N)OC3=C2C(=O)CC(C)(C)C3)ccc1OC(=O)N1CCOCC1 (stereo unspecified)", "nuclei count [%]": 86.6}
{"compound": "Cc1ccc2nc(/C(C#N)=N/O)[nH]c2c1", "nuclei count [%]": 112}
{"compound": "CCOC(=O)c1sc(NC(=O)CSc2nnnn2-c2ccccc2)c(C(=O)OCC)c1C", "nuclei count [%]": 96.5}
{"compound": "CO/C([O-])=N/c1c[n+](-c2ccc(C)cc2)no1", "nuclei count [%]": 104}
{"compound": "Cc1cccc(N(CC(=O)Nc2ccc(CC#N)cc2)S(C)(=O)=O)c1", "nuclei count [%]": 106}
{"compound": "Cc1cccc(C)c1NC(=O)N1CCN(C2CCCCC2)CC1", "nuclei count [%]": 106}
{"compound": "CCOC(=O)c1ccc(NC(=O)N2CCN(Cc3cccc(F)c3)CC2)cc1", "nuclei count [%]": 97.2}
{"compound": "Cc1c(C#N)c(N)c(C(=O)c2ccccc2)n1Cc1ccccc1", "nuclei count [%]": 100}
{"compound": "O=C(NCC(=O)N(CCc1ccccc1)C(C(=O)NC1CCCC1)c1cccnc1)c1ccco1 (stereo unspecified)", "nuclei count [%]": 108}
{"compound": "O=C(NC1CCCC1)C(NS(=O)(=O)c1cccc2nsnc12)c1ccccc1 (stereo unspecified)", "nuclei count [%]": 103}
{"compound": "CCN(C(=O)c1ccnc(C(C)(C)C)c1)c1ccccc1", "nuclei count [%]": 99.8}
{"compound": "Cc1cc2ncn(C(=O)N3CCOCC3)c2cc1C", "nuclei count [%]": 97.2}
{"compound": "O=C(Nc1nc(-c2ccccc2)cs1)C1CCCO1 (stereo unspecified)", "nuclei count [%]": 102}
{"compound": "OC(CN1CCCCC1)Cn1c(C(F)(F)F)nc2ccccc21 (stereo unspecified)", "nuclei count [%]": 122}
{"compound": "CCC(=O)N1CCNC(=O)C1CC(=O)Nc1ccc(C)c(Cl)c1 (stereo unspecified)", "nuclei count [%]": 102}
{"compound": "O=C(CN1C(=O)c2ccccc2C1=O)Nc1ccc(S(=O)(=O)NCC2CCCO2)cc1 (stereo unspecified)", "nuclei count [%]": 93.4}
